Catalogue of melting point values

Field: example entries. Status: answers known.
{"columns": ["compound", "melting point"],
 "data": [
  ["CN1CCN(C(=O)c2ccc(NC(=O)c3n[nH]cc3Nc3ncnc4sccc34)cc2)CC1 [Compound 8b]", "280 to 281 °C"],
  ["O=C(Nc1ccc(N2CCOCC2)cc1)c1n[nH]cc1Nc1ncnc2[nH]ccc12 [Compound 8g]", "303 to 304 °C"],
  ["CN1CCCN(c2ccc(NC(=O)c3n[nH]cc3Nc3ncnc4sccc34)cc2)CC1 [Compound 8c]", "223 to 224 °C"]
]}

The compound listed as CN1CCCN(c2cccc(NC(=O)c3n[nH]cc3Nc3ncnc4sccc34)c2)CC1 [Compound 8f] has a reported melting point of > 300 °C

----------
Record: IC50 reported on CDK2 (Homo sapiens).

Some solved entries appear below for comparison.
{"columns": ["molecule", "IC50"],
 "data": [
  ["O=C(Nc1ccc(N2CCNCC2)cn1)c1n[nH]cc1Nc1ncnc2c1CCC2 [Compound 8q]", "509 nM"],
  ["CN1CCCN(c2ccc(NC(=O)c3n[nH]cc3Nc3ncnc4sccc34)cc2)CC1 [Compound 8c]", "3.51 nM"],
  ["O=C(Nc1ccccc1)c1n[nH]cc1Nc1ncnc2[nH]ccc12 [Compound 3a]", "0.2 nM"],
  ["O=C(Nc1ccncc1)c1n[nH]cc1Nc1ncnc2[nH]ccc12 [Compound 3b]", "4.31 nM"],
  ["O=C(Nc1ccc(N2CC3CC2CN3)cc1)c1n[nH]cc1Nc1ncnc2sccc12 (stereo not shown) [Compound 8i]", "24.5 nM"]
]}

Summary line: O=C(Nc1ccc(N2CCNCC2)cc1)c1n[nH]cc1Nc1ncnc2[nH]ccc12 [Compound 8h] , CDK2 (Homo sapiens), reported IC50 = 0.282 nM

GET /values?item= O=C(Nc1ccc(N2CCNCC2)cn1)c1n[nH]cc1Nc1ncnc2sc3c(c12)CCCC3 [Compound 8p] &system= CDK2 (Homo sapiens) returns IC50: 86.4 nM

----------
# experimental system: FLT3 mutants
# assay explanation: Hot-Spot kinase profiling, FLT3 mutants together
# experimental context: eight FLT3 mutants, bound for all; read-out: IC50 against FLT3 mutants
quantity name: IC50

Please fill in: IC50 reported for O=C(Nc1ccc(N2CCNCC2)cc1)c1n[nH]cc1Nc1ncnc2sc3c(c12)CCC3 [Compound 8t] = < 5 nM

----------
# experimental system: CDK1/cyclin B (Homo sapiens)
# Sequence (P06493 whole entry): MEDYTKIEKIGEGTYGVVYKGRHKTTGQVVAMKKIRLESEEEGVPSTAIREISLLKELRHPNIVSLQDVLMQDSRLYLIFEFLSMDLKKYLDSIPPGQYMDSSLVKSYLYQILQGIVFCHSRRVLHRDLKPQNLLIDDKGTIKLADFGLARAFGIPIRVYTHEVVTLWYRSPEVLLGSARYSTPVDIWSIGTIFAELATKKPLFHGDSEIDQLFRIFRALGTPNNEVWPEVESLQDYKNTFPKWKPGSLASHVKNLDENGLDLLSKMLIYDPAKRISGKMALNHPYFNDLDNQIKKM
# Sequence (P14635 whole entry partner): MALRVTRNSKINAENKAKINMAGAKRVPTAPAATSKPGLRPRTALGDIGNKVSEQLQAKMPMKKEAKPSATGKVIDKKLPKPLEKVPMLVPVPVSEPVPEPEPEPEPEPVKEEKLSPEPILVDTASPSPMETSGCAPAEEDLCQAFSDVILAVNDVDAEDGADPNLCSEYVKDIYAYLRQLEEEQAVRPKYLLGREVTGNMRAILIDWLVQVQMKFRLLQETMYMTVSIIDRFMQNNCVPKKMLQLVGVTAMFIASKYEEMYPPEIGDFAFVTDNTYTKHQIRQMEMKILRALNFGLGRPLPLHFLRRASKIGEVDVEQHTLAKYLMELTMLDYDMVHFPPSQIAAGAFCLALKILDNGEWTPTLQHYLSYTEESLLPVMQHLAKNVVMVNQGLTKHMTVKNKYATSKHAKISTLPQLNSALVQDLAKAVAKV
# assay explanation: Hot-Spot kinase profiling
# experimental context: Table 5 kinase profiling
quantity name: IC50

The compound O=C(Nc1ccc(N2CCNCC2)cc1)c1n[nH]cc1Nc1ncnc2sc3c(c12)CCC3 [Compound 8t] showed IC50 equal to 138 nM

----------
# experimental system: FLT3 (ITD)-W51 (Homo sapiens, UniProt P36888, DUP595-601)
# Sequence (P36888 with tags, fused parts or gaps DUP595-601 limits assumed): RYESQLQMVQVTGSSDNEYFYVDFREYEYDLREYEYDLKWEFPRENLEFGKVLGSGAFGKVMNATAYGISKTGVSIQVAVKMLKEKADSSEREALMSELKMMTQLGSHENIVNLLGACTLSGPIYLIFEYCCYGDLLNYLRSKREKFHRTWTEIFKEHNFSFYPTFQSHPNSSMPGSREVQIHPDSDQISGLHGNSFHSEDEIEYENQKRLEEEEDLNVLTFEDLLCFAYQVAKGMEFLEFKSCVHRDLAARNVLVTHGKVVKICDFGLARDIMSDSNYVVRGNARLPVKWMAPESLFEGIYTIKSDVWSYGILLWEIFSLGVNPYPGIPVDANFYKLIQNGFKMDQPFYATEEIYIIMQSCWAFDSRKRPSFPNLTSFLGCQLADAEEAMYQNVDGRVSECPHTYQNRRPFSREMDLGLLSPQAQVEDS
# assay explanation: Hot-Spot kinase profiling
# experimental context: Table 5 kinase profiling
quantity name: IC50 (nM)
API: value field is a number in nM; no unit string.

Note to self: IC50 recorded for O=C(Nc1ccc(N2CCNCC2)cc1)c1n[nH]cc1Nc1ncnc2sc3c(c12)CCC3 was 0.94

----------
# experimental system: CDK9/cyclin K (Homo sapiens, UniProt P50750)
# Sequence (P50750 whole entry): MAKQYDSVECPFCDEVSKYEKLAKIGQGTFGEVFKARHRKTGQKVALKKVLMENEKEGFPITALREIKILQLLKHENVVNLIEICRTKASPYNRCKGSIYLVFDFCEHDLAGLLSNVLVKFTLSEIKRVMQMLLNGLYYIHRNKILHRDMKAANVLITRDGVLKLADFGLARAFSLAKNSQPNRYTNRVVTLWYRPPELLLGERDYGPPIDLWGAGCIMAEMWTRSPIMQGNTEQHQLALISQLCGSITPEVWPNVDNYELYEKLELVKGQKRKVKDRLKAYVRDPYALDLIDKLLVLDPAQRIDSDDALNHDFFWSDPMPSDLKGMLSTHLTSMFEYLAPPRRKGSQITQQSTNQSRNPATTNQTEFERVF
# Sequence (O75909 whole entry partner): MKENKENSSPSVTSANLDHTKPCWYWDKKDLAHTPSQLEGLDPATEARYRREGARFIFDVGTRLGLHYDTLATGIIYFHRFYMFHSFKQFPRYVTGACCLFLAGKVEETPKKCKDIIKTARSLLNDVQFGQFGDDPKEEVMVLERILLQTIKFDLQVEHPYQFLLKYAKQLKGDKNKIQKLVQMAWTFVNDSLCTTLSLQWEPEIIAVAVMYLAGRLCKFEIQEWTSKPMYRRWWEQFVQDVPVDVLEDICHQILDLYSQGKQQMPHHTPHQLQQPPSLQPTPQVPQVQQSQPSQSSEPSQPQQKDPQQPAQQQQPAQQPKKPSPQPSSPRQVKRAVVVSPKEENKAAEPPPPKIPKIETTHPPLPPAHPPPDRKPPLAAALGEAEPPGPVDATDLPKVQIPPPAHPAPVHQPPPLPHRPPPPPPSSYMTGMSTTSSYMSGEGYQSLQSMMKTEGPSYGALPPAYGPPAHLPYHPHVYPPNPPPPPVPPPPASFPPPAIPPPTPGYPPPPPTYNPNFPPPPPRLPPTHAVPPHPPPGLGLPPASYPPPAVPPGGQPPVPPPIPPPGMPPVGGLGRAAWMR
# assay explanation: Hot-Spot kinase profiling
# experimental context: Table 5 kinase profiling
quantity name: pIC50
Reminder that pIC50 means the negative base-10 logarithm of the concentration expressed in mol/L.

O=C(Nc1ccc(N2CCNCC2)cc1)c1n[nH]cc1Nc1ncnc2sc3c(c12)CCC3 has a reported pIC50 of 7.85
